Provenance of the data: patent US20240245796A1

Catalogue of OD450 values
# Target Entity: T1, human FOLR1 protein, His Tag (ACRO FO1-H52H1) (human, UniProt P15328 25-233)
# T1 construct: Bought protein coated on ELISA plates; not shown: His tag
# T1 sequence (P15328 25-233 limits assumed): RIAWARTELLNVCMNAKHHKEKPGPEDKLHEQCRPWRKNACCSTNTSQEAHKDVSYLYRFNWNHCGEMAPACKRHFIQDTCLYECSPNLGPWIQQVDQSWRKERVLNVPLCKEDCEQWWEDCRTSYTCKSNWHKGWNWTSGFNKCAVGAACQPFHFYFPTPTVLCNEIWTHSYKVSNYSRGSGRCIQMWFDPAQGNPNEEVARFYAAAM
# Method Summary: ELISA, coated hFOLR1-His, supernatant 25x
Reported Endpoint: OD450 (OD450)

[[record]]
binder = "F131 (antibody, V domains shown, also called clone F131; F131 mAb) VH: EVQLLESGGGVVQPGRSLRLSCAASGFTFSSYGMHWVRQAPGKGLEWVAVISYDGSNKYYADSVKGRFTISRANSKNTLYLQMNSLRAEDTAVYYCARPRAYYGAYGSSFDYWGQGTQVTVSS VL: EIVMTQSPSSVSASVGDRVAITCRASQGISSWLAWYQQKPGKAPKLLIYAASSLQSGVPSRFSGSGSGTDFTLTISSLQPEDFATYYCQQSYSTPLTFGGGTKVDIK"
quantity_unit = "OD450"
reported_value = 1.38

[[record]]
binder = "F40 (antibody, V domains shown, Tested as full-length IgG with an IgG1 Fc from HEK293, as supernatant or purified; also called clone F40; anti-FOLR1 antibody F40) VH: EVQLLESGGGVVQPGRSLRLSCAASGFTFSSYAMHWVRQAPGKGLEWVAVISYDGSNKYYADSVKGRFIISRDNSKNTVYLQMNSLRAEDTAVYYCARPTYVFTYTGSSFDYWGQGTQVTVSS VL: DIQVTQSPSSLSASLGDTVSITCRASRGLTDSVAWYQQKPGQAPKLLIYAASTLQSGVPSRFGGSGSGSYFTLTITSLQPEDVATYYCQNYKSAPWTFGQGTKVEIK"
quantity_unit = "OD450"
reported_value = 0.163

[[record]]
binder = "F48 (antibody, V domains shown, Tested as full-length IgG with an IgG1 Fc from HEK293, as supernatant or purified; also called clone F48; anti-FOLR1 antibody F48) VH: EVQLLESGGGVVQPGRSLRLSCAASGFTFSSYGMHWVRQAPGKGLEWVAVISYDGSNKYYADSVKGRFTISRDNSKNTLYLHMNSLRAEDTAVYYCARPRAYYGAYGSSFDYWGQGTQVTVSS VL: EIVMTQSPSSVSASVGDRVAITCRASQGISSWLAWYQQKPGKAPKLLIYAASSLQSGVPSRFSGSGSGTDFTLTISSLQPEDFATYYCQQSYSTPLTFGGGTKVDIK"
quantity_unit = "OD450"
reported_value = 1.29

[[record]]
binder = "F8 (antibody, V domains shown, Tested as full-length IgG with an IgG1 Fc from HEK293, as supernatant or purified; also called clone F8; anti-FOLR1 antibody F8) VH: EVQLLESGGGVVQHGRSLRLSCAASGFTFSSYGMHWVRQAPGKGLEWVAVISYDGSNKYYADSVKGRFTISRDNSKNTLYLQMNSLRAEDTAVYYCARPRAYYGAYGSSFDYWGQGTQVTVSS VL: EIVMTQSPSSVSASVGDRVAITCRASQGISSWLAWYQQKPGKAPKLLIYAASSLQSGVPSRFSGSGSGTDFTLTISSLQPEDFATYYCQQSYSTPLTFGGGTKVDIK"
quantity_unit = "OD450"
reported_value = 1.31

[[record]]
binder = "F100 (antibody, V domains shown, Tested as full-length IgG with an IgG1 Fc from HEK293, as supernatant or purified; also called clone F100; anti-FOLR1 antibody F100) VH: EVQLLESGGGVVQPGRSLRLSCAASGFTFSSYGMHWVRQAPGKGLEWVAVISYDGSNKYYADSVKGRFTISRPNSKNTLYLQMNSLRAEDTAVYYCARPRAYYGAYGSSFDYWGQGTQVTVSS VL: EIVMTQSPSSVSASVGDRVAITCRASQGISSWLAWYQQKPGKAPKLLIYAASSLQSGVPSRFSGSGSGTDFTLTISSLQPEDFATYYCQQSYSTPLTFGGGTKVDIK"
quantity_unit = "OD450"
reported_value = 1.18

[[record]]
binder = "F112 (antibody, V domains shown, Tested as full-length IgG with an IgG1 Fc from HEK293, as supernatant or purified; also called clone F112; anti-FOLR1 antibody F112) VH: EVQLLESGGGVVQPGRSLRLSCAASGFTFSSYGMHWVRQAPGKGLEWVAVISYDGSNKYYADSVKGRFTISRHNSKNTLYLQMNSLRAEDTAVYYCARPRAYYGAYGSSFDYWGQGTQVTVSS VL: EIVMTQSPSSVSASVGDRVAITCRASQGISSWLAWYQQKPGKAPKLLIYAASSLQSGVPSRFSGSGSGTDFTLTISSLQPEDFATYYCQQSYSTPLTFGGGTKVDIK"
quantity_unit = "OD450"
reported_value = 1.17

